target or test system: human RET on cells (MCF7/SRE-Luc; HEK293/hGFRα3/hRET/SRE-Luc; HEK293/hGFRα1/hRET/SRE-Luc) (human), P07949
assay text: cell-based or functional assay
experimental endpoint: MCF7/SRE-luc Avg. IC50 (nM)
Field format: number, assumed nM, no unit text.

Worked set:
binder="H4H8071P (antibody, human IgG4, V domains shown) VH: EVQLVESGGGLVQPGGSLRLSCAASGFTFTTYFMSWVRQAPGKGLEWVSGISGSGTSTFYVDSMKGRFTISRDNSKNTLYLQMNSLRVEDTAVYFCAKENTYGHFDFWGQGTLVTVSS VL: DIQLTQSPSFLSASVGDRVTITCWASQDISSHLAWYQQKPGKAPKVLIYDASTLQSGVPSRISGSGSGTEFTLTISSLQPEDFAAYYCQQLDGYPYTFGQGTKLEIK" endpoint_result=0.45
binder="H4H8062P (antibody, human IgG4, V domains shown) VH: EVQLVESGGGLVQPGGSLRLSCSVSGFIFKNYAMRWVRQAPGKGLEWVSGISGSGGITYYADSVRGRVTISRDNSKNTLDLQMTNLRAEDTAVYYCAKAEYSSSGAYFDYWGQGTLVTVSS VL: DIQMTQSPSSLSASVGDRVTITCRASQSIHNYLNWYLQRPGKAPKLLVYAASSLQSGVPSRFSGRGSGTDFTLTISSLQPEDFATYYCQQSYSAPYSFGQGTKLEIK" endpoint_result=5.2
binder="H4H8066P (antibody, human IgG4, V domains shown) VH: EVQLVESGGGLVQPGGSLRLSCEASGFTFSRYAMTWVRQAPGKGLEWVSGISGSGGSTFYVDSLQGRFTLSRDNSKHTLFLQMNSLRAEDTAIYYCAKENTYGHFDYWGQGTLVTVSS VL: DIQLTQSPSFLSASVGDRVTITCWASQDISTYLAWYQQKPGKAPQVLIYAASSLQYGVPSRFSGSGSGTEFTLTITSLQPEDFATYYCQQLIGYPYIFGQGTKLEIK" endpoint_result=0.39
binder="H2M7086N (antibody, mouse IgG2, V domains shown) VH: QVQLVESGGGVVQPGRSLRLSCVVSGFTFSNYGMHWVRQGPGRGLEWLALIWYDGSDKYYAESVRGRFTISRDNSKNTVYLQMNSLRAEDTAMYYCTRDRIFDYWGQGTLVTVSS VL: AIQMTQSPSSLSASVGDRVTITCRASQDIRNDLGWYQHNPGKAPNLLIYAASTLQIGVPSRFRGSGSGTDFTLTISSLQPEDFATYYCLQDFDYPLSFGGGTKVEIR" endpoint_result=2.6

For the next question, use this binder.
**Q:** Bench note: what MCF7/SRE-luc Avg. IC50 did H4H8056P (antibody, human IgG4, V domains shown) VH: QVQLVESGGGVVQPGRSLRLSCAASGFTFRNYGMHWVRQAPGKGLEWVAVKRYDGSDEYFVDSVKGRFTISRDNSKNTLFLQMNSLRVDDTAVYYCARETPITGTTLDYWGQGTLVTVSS VL: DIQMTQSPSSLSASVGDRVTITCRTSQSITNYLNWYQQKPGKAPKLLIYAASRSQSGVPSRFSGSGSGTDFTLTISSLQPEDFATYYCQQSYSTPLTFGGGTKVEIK show?
**A:** 2
